Hey, just so you know, these numbers are from PubChem BioAssay AID686970.

assay_info: qHTS for induction of synthetic lethality in tumor cells producing 2HG: qHTS for the HT-1080-NT fibrosarcoma cell line;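 further: NT is the 2HG producing partner of a matched IDH1 knockdown line; nearly all actives have a fitted effect of over 55% in size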
cond: HT-1080-NT fibrosarcoma viability, CellTiter-Glo ATP luminescence, 48 h; series mostly up to 46.1 µM
The campaign covered roughly 360,000 compounds. About 6,000 (1.7%) were called active. Not shown: some 8% with an inconclusive outcome. The call rests on the fitted dose curve; in most records, active means well fitted cell-killing curve with a large enough effect; inconclusive means small, poorly fitted or top-dose-only effect, or effect the other way; inactive means flat fitted curve, though single readings scatter. This excerpt belongs to a sample that is enriched for actives.
Classes used: Yes (active), No (inactive)

> print(dat)
                                    compound  assigned.category
 1  COc1ccc(CCNS(=O)(=O)c2cccc3cccnc23)cc1OC                 No
 2  OC[C@@H]1CN(C2CCCC2)C[C@H](n2cnc3c(NC4CCC4)ncnc32)O1                 No
 3  Cc1cc(C)cc(NS(=O)(=O)c2ccc(Oc3ncc(C(F)(F)F)cc3Cl)cc2)c1                Yes
 4  CCc1nc2ccc(C(=O)Nc3ccc(OC)c(OC)c3)cn2c1N(C)C(=O)c1cccc(OC)c1                 No
 5  O=C(Cn1c(-c2cscn2)nc2ccccc21)Nc1ccc(Cl)cc1                 No
 6  CCCOc1ccccc1C1CC(=O)Nc2cc3c(cc21)OCO3 (stereo not given)                Yes
 7  CCCCC[C@H](C)N1C[C@@H](COCc2ccccc2)Oc2cc(N3CCC[C@@H]3CO)ccc2S1(=O)=O                 No
 8  CN(Cc1ccccc1)C(=O)CCC1CCN(C(=O)c2ccco2)CC1                 No
 9  C[C@H](CO)N1C[C@H](C)[C@@H](CN(C)C(=O)C2CCCCC2)OCc2cnnn2CCCC1=O                 No
10  OC[C@@H]1CN(Cc2ccc(-c3ccccc3)cc2)C[C@H](n2cnc3c(NC4CCCC4)ncnc32)O1                Yes
